biological target: α2B receptor (Homo sapiens); construct: host or cells: LM(tk-) cells, line L-NGC-α2B; test: Competition binding, [3H]rauwolscine, human α2B receptor; conditions: [3H]rauwolscine, human receptor, LM(tk-) cell lysates; mean; read-out: PKi alpha-2 2b (converted)

{"columns": ["compound", "measureUnit", "Ki"],
 "data": [
  ["CCC1=C(C(=O)NC)C(c2ccc([N+](=O)[O-])cc2)C(C(=O)NCCCN2CCC(C(=O)OC)(c3ccccc3)CC2)=C(CCCCOC)N1 (stereo not shown)", "µM", 0.955],
  ["CCOC(=O)C1(c2ccccc2)CCN(CCCNC(=O)C2=C(COCCN)NC(CC)=C(C(N)=O)C2c2ccc([N+](=O)[O-])cc2)CC1 (stereo not shown)", "µM", 2.4],
  ["CCOC(=O)C1(c2ccccc2)CCN(CCCNC(=O)C2=C(COCCN)NC(CC)=C(C(=O)O)C2c2ccc([N+](=O)[O-])cc2)CC1 (stereo not shown)", "µM", 4.68],
  ["CCC1=C(C(N)=O)C(c2ccc([N+](=O)[O-])cc2)C(C(=O)NCCCN2CCC(C(=O)OC)(c3ccccc3)CC2)=C(CCCCN)N1 (stereo not shown)", "µM", 3.89]
]}

###

// reported Ki per item
target: α2B receptor (Homo sapiens, UniProt P18089); construct: host or cells: LM(tk-) cells, line L-NGC-α2B; assay: Competition binding, [3H]rauwolscine, human α2B receptor; conditions: pKi alpha-2 2b
Sequence (P18089 whole entry): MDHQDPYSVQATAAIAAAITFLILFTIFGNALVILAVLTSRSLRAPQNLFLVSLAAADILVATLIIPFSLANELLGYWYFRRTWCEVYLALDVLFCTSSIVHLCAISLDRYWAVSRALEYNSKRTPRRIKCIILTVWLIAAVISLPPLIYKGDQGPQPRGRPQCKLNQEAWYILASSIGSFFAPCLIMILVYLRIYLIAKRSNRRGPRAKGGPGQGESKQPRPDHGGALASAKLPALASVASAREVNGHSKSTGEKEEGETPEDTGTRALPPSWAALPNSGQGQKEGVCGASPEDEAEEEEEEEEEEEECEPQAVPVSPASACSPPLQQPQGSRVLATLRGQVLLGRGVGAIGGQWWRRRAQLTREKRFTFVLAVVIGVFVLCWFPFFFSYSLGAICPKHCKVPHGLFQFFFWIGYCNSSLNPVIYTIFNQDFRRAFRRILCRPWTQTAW
Counter-ions that a name gives are not always drawn.
valueType: Ki (nM)

{"columns": ["compound", "experimentalResult"],
 "data": [
  ["COC(=O)C1=C(C)NC(C)=C(C(=O)NCCCN2CCC(c3ccccc3)(c3ccccc3)CC2)C1c1ccncc1 (stereo not drawn) [Example 5]", 2140],
  ["COC(=O)C1=C(C)NC(C)=C(C(=O)N(C)CCCN2CCC(c3ccccc3)(c3ccccc3)CC2)C1c1ccc([N+](=O)[O-])cc1 (stereo not drawn) [Example 46, hydrochloride hemihydrate]", 490],
  ["CCC1=C(C(N)=O)C(c2ccc([N+](=O)[O-])cc2)C(C(=O)NCCCN2CCC3(CC2)C(=O)NCN3c2ccccc2)=C(CC)N1 (stereo not drawn) [Example 105, hydrochloride hydrate]", 2190]
]}

###

target: α2B receptor (Homo sapiens); construct: host or cells: LM(tk-) cells, line L-NGC-α2B; assay: Competition binding, [3H]rauwolscine, human α2B receptor; details: PKi alpha-2 2b
pKi: −log10 of the molar value.

{"columns": ["compound", "pKi"],
 "data": [
  ["CCC1=C(C(=O)OC)C(c2ccc([N+](=O)[O-])cc2)C(C(=O)NCCCN2CCC(C(=O)OC)(c3ccccc3)CC2)=C(COCCN)N1 (centres unmarked)", 5.53],
  ["COC(=O)C1=C(C)NC(CCCCN)=C(C(=O)NCCCN2CCC(c3ccccc3)(c3ccccc3)CC2)C1c1ccc([N+](=O)[O-])cc1 (centres unmarked)", 5.06],
  ["CCC1=C(C(=O)NC)C(c2ccc([N+](=O)[O-])cc2)C(C(=O)NCCCN2CCC(C(=O)OC)(c3ccccc3)CC2)=C(CC)N1 (centres unmarked)", 5.73],
  ["CCC1=C(C(=O)NC)C(c2ccc([N+](=O)[O-])cc2)C(C(=O)NCCCN2CCC(c3ccccc3)(c3ccccc3)CC2)=C(COCCN)N1 (centres unmarked)", 5.60],
  ["CCC1=C(C(N)=O)C(c2ccc([N+](=O)[O-])cc2)C(C(=O)NCCCN2CCC(C(=O)OC)(c3ccccc3)CC2)=C(CC)N1 (centres unmarked)", 5.97]
]}

###

molecular target: α2B receptor (Homo sapiens, UniProt P18089); construct: host or cells: LM(tk-) cells, line L-NGC-α2B; test: Competition binding, [3H]rauwolscine, human α2B receptor; settings: pKi alpha-2 2b, [3H]rauwolscine, LM(tk-) cell line L-NGC-α2B; SEM and n in lines below
Counter-ions that a name gives are not always drawn.

{"columns": ["molecule", "Ki"],
 "data": [
  ["CCC1=C(C(=O)NCCCN2CCC(c3ccccc3)(c3ccccc3)CC2)C(c2ccc([N+](=O)[O-])cc2)C(C(=O)OCc2ccccc2)=C(C)N1 (stereo not drawn) [Example 4, Hydrochloride Salt, Hydrate]", "1020 nM"],
  ["CCC1=C(C(N)=O)C(c2ccc([N+](=O)[O-])cc2)C(C(=O)NCCCN2CCC(c3ccccc3)(c3ccccc3)CC2)=C(CC)N1 (stereo not drawn) [Example 42]", "229 nM"],
  ["COC(=O)C1=C(C)NC(C)=C(C(=O)NCCCN2CCC(c3ccccc3)(c3ccccc3)CC2)C1c1ccoc1 (stereo not drawn) [Example 23]", "562 nM"]
]}

###

Biological target: α2A receptor (Homo sapiens)
Construct: host or cells: LM(tk-) cells, line L-α2A
Sequence (P08913 1-465): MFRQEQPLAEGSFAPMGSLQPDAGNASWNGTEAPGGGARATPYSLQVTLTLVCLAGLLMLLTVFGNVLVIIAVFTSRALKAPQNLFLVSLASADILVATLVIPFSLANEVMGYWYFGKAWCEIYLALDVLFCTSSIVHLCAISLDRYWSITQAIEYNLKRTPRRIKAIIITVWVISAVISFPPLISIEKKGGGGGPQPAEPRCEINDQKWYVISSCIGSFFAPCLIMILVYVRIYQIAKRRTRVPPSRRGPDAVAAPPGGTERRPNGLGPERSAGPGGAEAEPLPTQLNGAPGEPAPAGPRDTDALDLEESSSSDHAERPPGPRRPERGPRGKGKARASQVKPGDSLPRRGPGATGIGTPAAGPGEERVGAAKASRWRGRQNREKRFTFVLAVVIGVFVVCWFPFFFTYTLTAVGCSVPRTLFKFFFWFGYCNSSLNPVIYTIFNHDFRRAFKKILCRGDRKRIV
Assay: Competition binding, [3H]rauwolscine, human α2A receptor
pKi: −log10 of the molar value. Where a name gives a salt, the structure may show the parent alone.
valueType: pKi

{"columns": ["compound", "testSystem", "valueType", "experimentalResult"],
 "data": [
  ["COC(=O)C1=C(C)NC(C)=C(C(=O)NCCCN2CCC(c3ccccc3)(c3ccccc3)CC2)C1c1ccc(C)cc1 (centres unmarked)", "α2A receptor (Homo sapiens)", "pKi", 5.89],
  ["CCNC(=O)C1=C(CC)NC(COCCN)=C(C(=O)NCCCN2CCC(C(=O)OC)(c3ccccc3)CC2)C1c1ccc([N+](=O)[O-])cc1 (centres unmarked)", "α2A receptor (Homo sapiens)", "pKi", 5.32],
  ["CCOC(=O)C1=C(CC(=O)NCCCN2CCC(c3ccccc3)(c3ccccc3)CC2)NC(C)=C(C(=O)OC)C1c1ccc([N+](=O)[O-])cc1 (centres unmarked) [Example 89, fumarate salt]", "α2A receptor (Homo sapiens)", "pKi", 5.63],
  ["CCC1=C(C(=O)NC)C(c2ccc([N+](=O)[O-])cc2)C(C(=O)NCCCN2CCC(c3ccccc3)(c3ccccc3)CC2)=C(COCCN)N1 (centres unmarked)", "α2A receptor (Homo sapiens)", "pKi", 5.69],
  ["CCNC(=O)C1=C(CC)NC(CC)=C(C(=O)NCCCN2CCC(C(=O)OC)(c3ccccc3)CC2)C1c1ccc([N+](=O)[O-])cc1 (centres unmarked)", "α2A receptor (Homo sapiens)", "pKi", 5.16]
]}

###

// reported Ki per item
biological target: α2A receptor (Homo sapiens, UniProt P08913); construct: host or cells: LM(tk-) cells, line L-α2A; test: Competition binding, [3H]rauwolscine, human α2A receptor; settings: [3H]rauwolscine, LM(tk-) cell line L-α2A; SEM and n in lines below; read-out: pKi alpha-2 2a (converted)
Counter-ions that a name gives are not always drawn.
valueType: Ki

{"columns": ["molecule", "experimentalResult"],
 "data": [
  ["COc1cc2c(cc1OC)CN(CCCNC(=O)C1=C(C)NC(C)=C(C(N)=O)C1c1ccc([N+](=O)[O-])cc1)CC2 (stereo not shown) [Example 58, hydrochloride]", "8.32 nM"],
  ["CCC1=C(C(=O)NCCCN2CCC(c3ccccc3)(c3ccccc3)CC2)C(c2ccc([N+](=O)[O-])cc2)C(C(=O)OCc2ccccc2)=C(C)N1 (stereo not shown) [Example 4, Hydrochloride Salt, Hydrate]", "550 nM"],
  ["COC(=O)C1=C(C)NC(C)=C(C(=O)OCCCN2CCCCC2)C1c1ccc([N+](=O)[O-])cc1 (stereo not shown)", "1510 nM"],
  ["CC1=C(C(N)=O)C(c2ccc([N+](=O)[O-])cc2)C(C(=O)NCCN2CCC(c3ccccc3)(c3ccccc3)CC2)=C(C)N1 (stereo not shown) [Example 54, hydrochloride hydrate]", "468 nM"]
]}

###

biological target: α1B Human Adrenergic Receptor (Homo sapiens, UniProt P35368); construct: The entire coding region of α1B (1563 bp); expressed in transfected cells; experiment: Radioligand binding, [3H]prazosin, cloned human α1B adrenergic receptor; conditions: cloned human receptor, LM(tk-) cell membranes, mean, read-out: PKi alpha-1 1b (converted)
Sequence (P35368 whole entry): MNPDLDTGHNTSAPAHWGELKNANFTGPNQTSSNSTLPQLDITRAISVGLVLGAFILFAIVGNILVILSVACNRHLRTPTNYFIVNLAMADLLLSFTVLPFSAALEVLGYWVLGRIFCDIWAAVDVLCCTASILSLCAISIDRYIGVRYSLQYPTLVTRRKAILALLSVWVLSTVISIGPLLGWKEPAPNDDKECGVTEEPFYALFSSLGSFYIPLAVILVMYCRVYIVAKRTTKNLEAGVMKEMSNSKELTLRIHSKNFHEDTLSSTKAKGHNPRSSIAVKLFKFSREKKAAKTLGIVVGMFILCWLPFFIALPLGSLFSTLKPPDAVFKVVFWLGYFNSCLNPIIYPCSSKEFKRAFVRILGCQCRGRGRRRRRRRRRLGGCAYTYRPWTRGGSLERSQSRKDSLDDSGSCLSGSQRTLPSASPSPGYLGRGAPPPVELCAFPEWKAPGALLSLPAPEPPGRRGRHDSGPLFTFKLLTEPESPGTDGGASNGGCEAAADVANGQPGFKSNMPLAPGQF
valueType: log10(Ki) (log10 of the value in nM)

{"columns": ["molecule", "testSystem", "log10(Ki)"],
 "data": [
  ["CCC1=C(C(N)=O)C(c2ccc([N+](=O)[O-])cc2)C(C(=O)NCCCN2CCC(C(=O)OC)(c3ccccc3)CC2)=C(COCCN=[N+]=[N-])N1 (centres unmarked)", "α1B Human Adrenergic Receptor (Homo sapiens, UniProt P35368)", 2.70],
  ["COC(=O)C1=C(C)NC(CCCCN)=C(C(=O)NCCCN2CCC(c3ccccc3)(c3ccccc3)CC2)C1c1ccc([N+](=O)[O-])cc1 (centres unmarked)", "α1B Human Adrenergic Receptor (Homo sapiens, UniProt P35368)", 2.02],
  ["CNC(=O)C1=C(C)NC(C)=C(C(=O)NCCCN2CCC(C(=O)OC)(c3ccccc3)CC2)C1c1ccc2c(c1)OCCO2 (centres unmarked)", "α1B Human Adrenergic Receptor (Homo sapiens, UniProt P35368)", 3.25],
  ["CCOC(=O)C1(c2ccccc2)CCN(CCCNC(=O)C2=C(COCCN=[N+]=[N-])NC(CC)=C(C(=O)O)C2c2ccc([N+](=O)[O-])cc2)CC1 (centres unmarked)", "α1B Human Adrenergic Receptor (Homo sapiens, UniProt P35368)", 3.15],
  ["CCOC(=O)C1(c2ccccc2)CCN(CCCNC(=O)C2=C(COCCN)NC(CC)=C(C(=O)NC)C2c2ccc([N+](=O)[O-])cc2)CC1 (centres unmarked)", "α1B Human Adrenergic Receptor (Homo sapiens, UniProt P35368)", 3.43],
  ["COC(=O)C1(c2ccccc2)CCN(CCCNC(=O)C2=C(CCCCN)NC(C)=C(C(N)=O)C2c2ccc([N+](=O)[O-])cc2)CC1 (centres unmarked)", "α1B Human Adrenergic Receptor (Homo sapiens, UniProt P35368)", 2.88],
  ["CCC1=C(C(N)=O)C(c2ccc([N+](=O)[O-])cc2)C(C(=O)NCCCN2CCC(C(=O)OC)(c3ccccc3)CC2)=C(COCCN)N1 (centres unmarked)", "α1B Human Adrenergic Receptor (Homo sapiens, UniProt P35368)", 3.11],
  ["CCC1=C(C(=O)O)C(c2ccc([N+](=O)[O-])cc2)C(C(=O)NCCCN2CCC(C(=O)OC)(c3ccccc3)CC2)=C(COCCN=[N+]=[N-])N1 (centres unmarked)", "α1B Human Adrenergic Receptor (Homo sapiens, UniProt P35368)", 3.42],
  ["CC1=C(C(N)=O)C(c2ccc([N+](=O)[O-])cc2)C(C(=O)NCCCN2CCC(C#N)(c3ccccc3)CC2)=C(COCCN=[N+]=[N-])N1 (centres unmarked)", "α1B Human Adrenergic Receptor (Homo sapiens, UniProt P35368)", 2.89],
  ["CCC1=C(C(=O)OC)C(c2ccc([N+](=O)[O-])cc2)C(C(=O)NCCCN2CCC(C(=O)OC)(c3ccccc3)CC2)=C(COCCN)N1 (centres unmarked)", "α1B Human Adrenergic Receptor (Homo sapiens, UniProt P35368)", 2.34],
  ["CCC1=C(C(=O)OC)C(c2ccc([N+](=O)[O-])cc2)C(C(=O)NCCCN2CCC(C(=O)OC)(c3ccccc3)CC2)=C(COCCN=[N+]=[N-])N1 (centres unmarked)", "α1B Human Adrenergic Receptor (Homo sapiens, UniProt P35368)", 2.34],
  ["COC(=O)C1(c2ccccc2)CCN(CCCNC(=O)C2=C(COCCN=[N+]=[N-])NC(C)=C(C(N)=O)C2c2ccc([N+](=O)[O-])cc2)CC1 (centres unmarked)", "α1B Human Adrenergic Receptor (Homo sapiens, UniProt P35368)", 2.36],
  ["CCOC(=O)C1(c2ccccc2)CCN(CCCNC(=O)C2=C(COCCN)NC(CC)=C(C(N)=O)C2c2ccc([N+](=O)[O-])cc2)CC1 (centres unmarked)", "α1B Human Adrenergic Receptor (Homo sapiens, UniProt P35368)", 3.24],
  ["CCC1=C(C(=O)NC)C(c2ccc([N+](=O)[O-])cc2)C(C(=O)NCCCN2CCC(C(=O)OC)(c3ccccc3)CC2)=C(COCCN)N1 (centres unmarked)", "α1B Human Adrenergic Receptor (Homo sapiens, UniProt P35368)", 3.14],
  ["COC(=O)C1(c2ccccc2)CCN(CCCNC(=O)C2=C(CCCCN)NC(C)=C(C(C)=O)C2c2ccc([N+](=O)[O-])cc2)CC1 (centres unmarked)", "α1B Human Adrenergic Receptor (Homo sapiens, UniProt P35368)", 2.62],
  ["CC1=C(C(N)=O)C(c2ccc([N+](=O)[O-])cc2)C(C(=O)NCCCN2CCC(c3ccccc3)CC2)=C(COCCN=[N+]=[N-])N1 (centres unmarked)", "α1B Human Adrenergic Receptor (Homo sapiens, UniProt P35368)", 0.85],
  ["CC1=C(C(N)=O)C(c2ccc([N+](=O)[O-])cc2)C(C(=O)NCCCN2CCC(C#N)(c3ccccc3)CC2)=C(COCCN)N1 (centres unmarked)", "α1B Human Adrenergic Receptor (Homo sapiens, UniProt P35368)", 3.10]
]}

Source listed as patent US6608086B2.
